// provenance: ChEMBL document CHEMBL3433997

- systemUnderTest: Solute carrier family 2, facilitated glucose transporter member 1 (Homo sapiens) (UniProt P11166)
- Sequence (P11166 whole entry): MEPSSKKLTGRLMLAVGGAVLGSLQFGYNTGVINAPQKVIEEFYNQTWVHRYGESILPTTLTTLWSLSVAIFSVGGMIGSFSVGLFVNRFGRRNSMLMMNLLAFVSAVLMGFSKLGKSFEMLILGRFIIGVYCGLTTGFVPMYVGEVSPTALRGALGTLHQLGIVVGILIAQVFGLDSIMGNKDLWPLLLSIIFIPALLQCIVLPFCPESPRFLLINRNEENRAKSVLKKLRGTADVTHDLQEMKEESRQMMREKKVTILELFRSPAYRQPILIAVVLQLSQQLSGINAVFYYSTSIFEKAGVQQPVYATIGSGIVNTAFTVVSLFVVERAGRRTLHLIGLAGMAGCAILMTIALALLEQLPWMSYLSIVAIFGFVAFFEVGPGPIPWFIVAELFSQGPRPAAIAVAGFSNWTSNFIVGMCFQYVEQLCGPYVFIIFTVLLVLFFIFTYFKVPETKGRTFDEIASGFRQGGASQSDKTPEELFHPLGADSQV
- protocolText: ST_JUDE_LEISH: Cytotoxicity at 2uM final concentration against transgenic Leishmania Mexicana promastigotes LmGLUT1 that are glucose transport deficient and complemented with the human glucose transporter GLUT1. Activity is measured by DNA content using SYBR green in vitro
- Type: functional
Known inhibition of a selection of molecules
Only the number, expressed in %, is required.

Would you please look over these solved cases?
GET /value?item= CN(C)Cc1cccc(-c2ccc(Nc3nccc(NCC(O)c4ccccc4)n3)cc2)c1 (stereo not given) &field=inhibition returns 2.6

The reported inhibition of the molecule CCOC(=O)c1ccc(OCCOc2ccccc2)cc1 was -0.36

Short answer for CC(=NNC(S)=NC(C)(C)C)c1ccccn1 : inhibition was 65.9

Looking up COc1cccc(CNC(=O)c2cccc(-c3ccc(CN4CCC(N5CCCC5)CC4)cc3)n2)c1 , I see its inhibition listed as 7.47

Switching to the query record.
Reported inhibition ( FC(F)(F)c1ccc2[nH]c(-c3ccc(-c4ccc(CN5CCN(c6ccncc6)CC5)cc4)s3)nc2c1 ) = 1.51

* * *

Below is a list of entries, each paired with its recorded inhibition value.
- systemUnderTest: Hexose transporter 1 (Plasmodium falciparum)
- protocolText: ST_JUDE_LEISH: Cytotoxicity at 2uM final concentration against transgenic Leishmania Mexicana promastigotes LmPfHT that are glucose transport deficient and complemented with the Plasmodium falciparum hexose transporter. Activity is measured by DNA content using SYBR green in vitro
- Format: functional
Write it as a number; the unit % goes unstated.

Record summary for CCCCC(N)COc1cccc2c(-c3ccncc3)c(-c3cccc(NC(=O)Nc4ccccc4)c3)nn12 (centres undefined) : reported inhibition = 2.13

***
Short answer for CCC[C@@H]([C@@H](CC1CCCCC1)C(=O)N[C@H](C(=O)Nc1nccs1)C(C)(C)SC)N(O)C=O : inhibition was 8.98

For reference, reported inhibition for COc1ccc(CCN(C)CCCCNC(=O)c2ccc(NC(=O)c3ccc(Cl)cc3)cc2)c(OC)c1 stands at 2.15

Recorded inhibition (compound C=CCOC(=O)N1CCC(CNCc2cccc(-c3cccc(-c4nc5cccc(C)c5[nH]4)c3)c2)C1 (centres undefined) ): 1.88

* * *

- systemUnderTest: Hexose transporter 1 (Plasmodium falciparum) (UniProt O97467)
- protocolText: ST_JUDE_LEISH: Cytotoxicity at 2uM final concentration against transgenic Leishmania Mexicana promastigotes LmPfHT that are glucose transport deficient and complemented with the Plasmodium falciparum hexose transporter. Activity is measured by DNA content using SYBR green in vitro
- Type: functional
Reported inhibition is given for each of the following compounds.
The figure you give is taken to be in %; do not add the unit.

Solved cases below.
Documented inhibition of CCOc1ccc(-c2noc(-c3c[nH]c4ccccc4c3=O)n2)cc1 : -0.34

Input CC(=O)Nc1ccc(C(=O)Nc2cccc(-c3cccc(-c4nc5ccccc5[nH]4)c3)c2)cn1 . Output inhibition: -0.22

Entry CSc1ccc(CN2CCC(NC(=O)c3ccc(-c4cccc(Cl)c4)s3)CC2)cc1 , inhibition reported as 6.28

Others:
// inhibition lookup, compound = COc1ccc2nc3cc(Cl)ccc3c(NCCCCN)c2c1 , result: 1.49

Record Oc1ccc(Cc2cc(Oc3c(I)cc(CCc4ncc[nH]4)cc3I)ccc2O)cc1 , field inhibition: 1.92

// field: inhibition; key: COc1cc2c(C3CCN(CC4CCN(C(=O)/C=C/c5ccc(Cl)c(Cl)c5)CC4)CC3)c[nH]c2cn1 ; value = -0.95

For reference, reported inhibition for Nc1nccc2ccc(-c3ccc(NC(=O)Nc4cc(C(F)(F)F)ccc4F)cc3)cc12 stands at 4.94

The value of inhibition measured for the compound O=C(CC1CCCC1)Nc1ccc2c(c1)CCC2 turned out to be 3.17

inhibition recorded for this compound, Cc1cccc(CNc2nc(C)cc(N[C@@H](Cc3ccccc3)C(=O)NCc3cccc(F)c3)n2)c1 , is 6.57

Quick note, inhibition for Cc1ccc(C2CCN(CCCCNC(=O)c3ccc(NC(=O)c4ccc(Cl)cc4)cc3)CC2)c(C)c1 landed at -0.75

The reported value for CCOc1ccc2[nH]c(C)cc(=NN=Cc3ccc(Cl)cc3)c2c1 in terms of inhibition is 0.45

Notebook: O=C(Nc1cccc(-c2cccc(-c3nc4cc(C(F)(F)F)ccc4[nH]3)c2)c1)Nc1ccc(F)c(F)c1F , inhibition read as -0.91

inhibition for CCOC(=O)c1cc(=O)c2ccc(OCC#N)cc2o1 is 82.1

# compound CCc1cc(CNC2CCN(CCc3c(F)cnc4ccc(OC)nc34)CC2)cc2c1OCCO2 ; its inhibition = 34.5

Sure, the documented inhibition for CCCCCCc1cc2cc(-c3csc(C=Cc4ccccc4)n3)c(=O)oc2cc1O is 10.6

// inhibition lookup, compound = CCCCCCN1CCN(Cc2cccc(NC(=O)c3cc4ccccc4s3)c2)CC1 , result: 2.43
